For each entry below, report its nuclei count, normalised value.
test: nuclear p53 accumulation, HPV+ cells – imaging, p53-positive nuclei imaging, 24 h, 48 h (AID 1508601); conditions: 24/48 h, measured here: cell number at 24 h, Library stock concentration: 41 uM
Hit rate of the full screen: of about 5,700 compounds, about 85 (1%) were called active. Many of the other results were omitted from the sample, so actives are more common in it than they were.

Worked examples, 5 molecules total:
I have this molecule here, CCOC(=O)c1sc(NC(=O)c2ccco2)c(SC#N)c1C , and I need its recorded nuclei count, normalised.
124%

Now the same for C=C1C(=O)OC(CCCCCCCC)C1C(=O)O (stereo unspecified)
108%

Now the same for O=C(O)c1ccccc1SC1=NS(=O)(=O)c2ccccc21
125%

Now the same for CC(=O)NC(CSC(=S)NSc1ccc(SNC(=S)SCC(NC(C)=O)C(=O)O)cc1)C(=O)O (stereo unspecified)
121%

Now the same for OCC1OC(n2cnc3c2NC=NCC3O)CC1O (stereo unspecified)
122%

Kindly review the next molecule as well.
I have this molecule here, CN(C)CCC(CSc1ccccc1)Nc1ccc(S(=O)(=O)NC(=O)c2ccc(N3CCN(Cc4ccccc4-c4ccc(Cl)cc4)CC3)cc2)cc1[N+](=O)[O-] (stereo unspecified) , and I need its recorded nuclei count, normalised.
117%

###

biological target: Cellular tumor antigen p53 (Homo sapiens); experiment: nuclear p53 accumulation, HPV+ cells – imaging, p53-positive nuclei imaging, 24 h, 48 h (AID 1508601); conditions: 24/48 h, measured here: p53 positive nuclei at 24 h, stronger effect = higher value, concentration not given here
Screen size: about 5,700 compounds; about 85 (1%) were called active. The entries come from a sample that favours actives as a whole.
Assay metric: p53-positive nuclei, normalised
Please format your answer as a value with the unit trailing.

Worked examples, 5 compounds total:
I have this compound here, C/C=C/C(=O)O[C@H](COCCCCCCCCCCCCCCCC)COP(=O)([O-])OCC[N+](C)(C)C , and I need its recorded p53-positive nuclei, normalised.
0.0947%

Now the same for CCCCC/C=C\C/C=C\C/C=C\C/C=C\CCCC(=O)C(F)(F)F
-0.0854%

Now the same for CCCCC[C@@](C)(O)/C=C/[C@H]1[C@H](O)CC(=O)[C@@H]1C/C=C\CCCC(=O)O
0.0947%

Now the same for COc1cccc(CN2CCN(c3ccc4cccc(OC)c4n3)CC2)c1
0.279%

Now the same for Cn1cc(C2=C(c3cn(CCCN)c4ccccc34)C(=O)NC2=O)c2ccccc21
0.12%

Continuing:
I have this compound here, CCCCC[C@H](O)/C=C/[C@H]1[C@H](O)CC(=O)[C@@H]1C/C=C\CCCC(=O)Oc1ccc(NC(C)=O)cc1 , and I need its recorded p53-positive nuclei, normalised.
-0.118%

###

For each entry below, report its nuclei count, normalised value.
test: nuclear p53 accumulation, HPV+ cells – imaging, p53-positive nuclei imaging, 24 h, 48 h (AID 1508601); details: 24/48 h, measured here: cell number at 24 h, Library stock concentration: 3.33 mM
The whole screen tested about 5,700 compounds, of which about 85 (1%) were called active. This is one part of a sample in which actives are shown more often than they occur. Peptide text beside a SMILES is read from it.
One number for each entry, in %.

Worked examples, 4 compounds total:
I have this compound here, Cc1cn(C2OC(CO)C(O)C2F)c(=O)[nH]c1=O (stereo unspecified) , and I need its recorded nuclei count, normalised.
108

Now the same for CCN(CC)Cc1ccc2cc(COC(=O)Nc3ccc(C(=O)NO)cc3)ccc2c1
39.9

Now the same for COc1cc(OC)c2c(=O)[nH]c(-c3cc(C)c(OCCO)c(C)c3)nc2c1
108

Now the same for COC(=O)C(Cc1ccccc1)NC(=O)C(N)CC(=O)O (stereo not drawn) (H-Asp-Phe-OMe; configuration not given here)
101

Dear colleague, could you please provide nuclei count, normalised for the compounds listed below?
1. CC(C)CC(NC(=O)CNC(=O)c1cc(Cl)ccc1Cl)B(O)O (stereo unspecified)
2. CN(C)CCCn1cc(C2=C(c3c[nH]c4ccccc34)C(=O)NC2=O)c2ccccc21

1: 50.2; 2: 108

Dear colleague, could you please provide nuclei count, normalised for the compounds listed below?
1. CC(C)c1nc(CN(C)C(=O)NC(CCN2CCOCC2)C(=O)NC(CCC(Cc2ccccc2)NC(=O)OCc2cncs2)Cc2ccccc2)cs1 (stereo unspecified)
2. CC(C)CC(CC(=O)NO)C(=O)NC(Cc1ccc2ccccc2c1)C(=O)NC(C)C(=O)NCCN (stereo unspecified)
3. COc1ccc(CC(NC(=O)C(C)NC(=O)CN2CCOCC2)C(=O)NC(Cc2ccccc2)C(=O)[C@]2(C)CO2)cc1 (stereo partly specified)
4. CCC(CC)(NC(=O)C(C)C)C(=O)NC(CCCN=C(N)N)C(=O)NC1(C(=O)NC(c2ccc(F)cc2)c2ccc(F)cc2)CCCC1 (stereo unspecified)
5. O=C(Cc1ccc(-c2ccc(OCCN3CCOCC3)cc2)cn1)NCc1ccccc1

[98.1, 109, 46, 107, 41.1]
